# System: leukemia P 388
# assay.info: Test of leukemia P 388; IP/IP, D1-5
# Format: in vivo, CDF1 hybrid mice
# experimental.setup: 2.5 mg/kg IP, D1-D5
measure: Variation by weight (g)

molecule_smiles=Cc1cnc(NCCCN(C)C)c2c1[nH]c1ccc(O)cc12 tgt="leukemia P 388" measure="Variation by weight (g)" observed="+3.2 g"
molecule_smiles=Cc1cnc(NCCCN(C)C)c2c3cc(O)ccc3n(C)c12 tgt="leukemia P 388" measure="Variation by weight (g)" observed="+0.9 g"
molecule_smiles=CCN(CC)CCCNc1ncc(C)c2c1c1cc(O)ccc1n2C tgt="leukemia P 388" measure="Variation by weight (g)" observed="+1.2 g"
molecule_smiles=CCN(CC)CCCNc1ncc(C)c2[nH]c3ccc(O)cc3c12 tgt="leukemia P 388" measure="Variation by weight (g)" observed="+0.1 g"
